Measured inhibition at 10 µM accompanies every entry in the list below.
# target.under.test: 5-HT1A (Homo sapiens, UniProt P08908)
# Sequence (P08908 whole entry): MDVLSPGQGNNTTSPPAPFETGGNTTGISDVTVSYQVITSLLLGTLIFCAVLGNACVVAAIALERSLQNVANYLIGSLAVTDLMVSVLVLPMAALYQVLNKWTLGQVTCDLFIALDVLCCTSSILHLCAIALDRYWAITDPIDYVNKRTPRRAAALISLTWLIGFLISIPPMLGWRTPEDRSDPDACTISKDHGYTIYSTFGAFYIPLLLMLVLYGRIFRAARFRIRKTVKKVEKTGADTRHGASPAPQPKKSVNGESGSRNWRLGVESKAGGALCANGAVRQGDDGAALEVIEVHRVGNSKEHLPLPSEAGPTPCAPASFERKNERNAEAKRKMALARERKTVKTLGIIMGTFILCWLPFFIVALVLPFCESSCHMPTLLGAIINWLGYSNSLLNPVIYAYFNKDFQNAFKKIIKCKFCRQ
# assay.comment: 5-HT1 Functional Assay (cAMP) in CHO/5-HT1A cells
# Assay type: cell-based
# Design: expressed in transfected cells; host or cells: CHO/5-HT1A cells
The response must be a number in % with no trailing unit.

query: # input compound: COCCn1c(=O)n(C/C=C\CN2CCN(c3cccc(C(F)(F)F)c3)CC2)c2ccccc21 [Compound 284] ; wanted: its inhibition at 10 µM
result: 82

query: Would you kindly repeat that for Cc1cccc(N2CCN(C/C=C\Cn3c(=O)n(CCNS(C)(=O)=O)c4ccccc43)CC2)c1 [Compound 514] ?
result: 67

query: Would you kindly repeat that for O=c1n(C/C=C/CN2CCN(c3cccc(Cl)c3)CC2)c2ccccc2n1CCO [Compound 382] ?
result: 64

query: Would you kindly repeat that for CCNC(=O)OCCn1c(=O)n(CCN2CCN(c3cccc(C)c3C)CC2)c2ccccc21 [Compound 215] ?
result: 83

====

# target.under.test: UniProtKB P08908
# assay.comment: 5HT1A Radioligand Receptor Binding Assay ([3H]-8-OH-DPAT, CHO cell membranes)
# Design: expressed in transfected cells; host or cells: CHO cells
# condition.description: compound 10^−7 M, singlicate; [3H]-8-OH-DPAT 0.6-0.7 nM; CHO membranes, human 5-HT1A
# Method: 5HT1A Radioligand Receptor Binding Assay Membranes from CHO cells, expressing 5-HT1A human receptors were suspended in incubation buffer. Binding assays were performed in MultiProbe 204 pipetting system (Packard), according to a predetermined mapping, consistent with the software Screen. The compounds were tested in singlicate at one concentration (10^−7 M) in a total volume of 1000 μl. […] Non-specific binding was determined in the presence of 5-HT (10^−5 M). […]
Could you label it fulfilled if measured 5-HT1A Receptor Binding Assay % inhibition (10^−7 M) is 90% or higher, and not fulfilled otherwise?

structure.smiles.string: CCNC(=O)OCCn1c(=O)n(CCCCN2CCN(c3cccc(C)c3C)CC2)c2ccccc21
target.under.test: UniProtKB P08908
class.name: fulfilled

structure.smiles.string: O=c1n(CCCCN2CCN(c3ccccc3)CC2)c2ccccc2n1CCN1CCOCC1
target.under.test: UniProtKB P08908
class.name: not fulfilled

structure.smiles.string: O=c1n(CCCCN2CCN(c3ccc(Cl)c(Cl)c3)CC2)c2ccccc2n1CCN1CCCCC1
target.under.test: UniProtKB P08908
class.name: not fulfilled

query: State whether the measured 5-HT1A Receptor Binding Assay % inhibition (10^−7 M) reaches 90%, counting equality as reaching it, for O=c1n(CCO)c2ccccc2n1CCN1CC=C(c2ccccc2)CC1
result: not fulfilled

query: Would you kindly repeat that for O=c1n(C/C=C/CN2CCN(c3cccc(Cl)c3)CC2)c2ccccc2n1CCN1CCCCC1 ?
result: fulfilled

query: Would you kindly repeat that for CCNC(=O)OCCn1c(=O)n(C/C=C/CN2CCN(c3ccccc3)CC2)c2ccccc21 ?
result: fulfilled

====

# target.under.test: UniProt:P08908
# assay.comment: 5HT1A Radioligand Receptor Binding Assay ([3H]-8-OH-DPAT, CHO cell membranes)
# Set-up: expressed in transfected cells; host or cells: CHO cells
# condition.description: compound 10^−7 M, singlicate; [3H]-8-OH-DPAT 0.6-0.7 nM; CHO membranes, human 5-HT1A
Measured 5-HT1A Receptor Binding Assay % inhibition (10^−7 M) accompanies every entry in the list below.
The response must be a number in % with no trailing unit.

For orientation, consider the following solved cases.
structure.smiles.string: O=c1n(C/C=C\CN2CCc3c([nH]c4ccccc34)C2)c2ccccc2n1CCO
target.under.test: UniProt:P08908
quantitative.result: 61
//
structure.smiles.string: O=c1n(CCO)c2ccccc2n1CCN1CCN(c2ccc(Cl)c(Cl)c2)CC1
target.under.test: UniProt:P08908
quantitative.result: 54
//
structure.smiles.string: COc1ccccc1N1CCN(CCn2c(=O)n(CCN3CCCCC3)c3ccccc32)CC1
target.under.test: UniProt:P08908
quantitative.result: 85

query: # input molecule: O=c1n(CCO)c2ccccc2n1CCCCN1CCN(c2ccc(Cl)c(Cl)c2)CC1 ; wanted: its 5-HT1A Receptor Binding Assay % inhibition (10^−7 M)
result: 65
